Values compiled from the supplement of paper PMC9170038.

Tested on: MS2 coat protein
Assay procedure: apparent KD of MS2 coat protein; higher = weaker reporter binding
Run conditions: Eterna round: R107; input ligand: theophylline 20 uM
Quantity: apparent KD of MS2 coat protein (nM)
Answers are plain numbers, in nM.

Here's what some known entries look like.
>>> quantitative_result("AACAUGAGGAUCACCCAUGUUCUCGUGUACCGAGGACCGGUACGGCCGCCACUCGGUUCUCGCGAGGAUGGUCAAAGACUAUCCA [Omei Trp A SS B v5]")
25.1
>>> quantitative_result("ACAUGAGGAUCACCCAUGUAGCGUAGGGAAGGAGCGGAAUAGAGUCCAGGUAGGUCGCCCAUAUGAUGAUCUCACUUAUUAUCGA [#13 Same State - Arginine A]")
36.7
>>> quantitative_result("UGCCGAGACGUGGAUUACCCGUGUACCGAAGGAGCGCCCGAAAGGGCAGGUAGGUCGCGGAGGACAUGAGGAUCACCCAUGUUUA")
55
>>> quantitative_result("AAACAUGAGGAUCACCCAUGUAAAGUUGAAGGAGCGACCAGAGGGUCAGGUAGGUCGCAACACAUGAGGAUCACCCAUGUAUCGA [DOUBLE!!! :-D #5]")
88.5
>>> quantitative_result("UCGCCAUUGACGGCCGCCACUCAAUGGUCUUCUCUGAACAUAAUUAACAUGAGGAUCACCCAUGUGAGGACCGGGUCGGUUAGAC [theeternabot_exclusion_MS2_Trp_B_24]")
23.5

Lab note: next sequence to report on.
Inquiry: Fill in the blank: the reported apparent KD of MS2 coat protein of UGUCCGUGAUCGGCCGCCACUCAACAAACCUGUGGAAACUGACAUGAGGAUCACCCAUGUUCUUGGAGGACCGGGAUUGCUUCGA [theeternabot_sameState_MS2_Trp_B_4] is ____.
Reply text: 19.7

###

Test system: MS2 coat protein
Assay procedure: apparent KD of MS2 coat protein; designed switch direction (-1 OFF switch, 1 ON switch): -1; higher = weaker reporter binding
Run conditions: input ligand: microRNA oligo, concentration not stated
Field: apparent KD of MS2 coat protein. Provide a value for each of the sequences that follow.
Answers are plain numbers, in µM.

Hey, quick one: what's apparent KD of MS2 coat protein for each of these?
1. CAGUACUGAGGAUAUACAUGAGGAUCACCCAUGUGUUCCAGCUAGGGAACUAGCAAAAGUAGAAGGCAGUACUG [salish99_ex3_r3_075] (Eterna round: R96, puzzle: Exclusion 3)
2. ACAUGAGGAUCACCCAUGUAAUGAUGGGUACUAUAUUAUUCGUAGGAUAUCGUUGUUAGUUUGUGCGAGAAGGACGAUUGCUUU [JR_ExcNG3_Sub057] (Eterna round: R96, puzzle: Exclusion NG 3)

Reply text:
[0.0204, 0.733]

Inquiry: Fill in the blank: the reported apparent KD of MS2 coat protein of CUGCCAACGAAGCUUGUCGACAUGAGGAUCACCCAUGUUUCGCAAAGUGUUACAAAAAAAUAUCUGUAUGAAAAUGU [JR_Sensorv2_yov_Sub1319] (Eterna round: R96, puzzle: Sensor v2, turn-off variant) is ____.
Reply text: 0.0102

###

Test system: K4 kissing-loop RNA reporter;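 also: bound reporter read as fluorescence of individual clusters on recovered sequencing chips by microscopy, with normalized cluster intensities fitted with a binding model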
Assay procedure: apparent KD of K4 kissing-loop reporter; higher = weaker reporter binding
Run conditions: Eterna round: R107; input ligand: theophylline 20 uM
# thresholds on apparent KD of K4 kissing-loop reporter define classes: LOW: < 100 nM; MID: ≥ 100 nM and < 300 nM; HIGH: ≥ 300 nM

Recorded results for 5 sequences are shown here.
>>> category_label("UGCACGUAGUGAUGUUACAGCAAGUUUAUGAAGGAUAUGAGGUUAGUCAGAAGGUCAGCCGUCUCGUUGUAAGCACCUUAUCAUU [theeternabot_exclusion_KL_FMN_A_14]")
"MID"
>>> category_label("AAGCAGUCACUCAAAGCCAUCGAAGAUGGACGAGGACCGGUACGGCCGCCACUCGGAGUGAUGUUCCGAAGACUGCAAAAUAAAA")
"HIGH"
>>> category_label("CUUCUUCUUCCAAUCUCGGCCAACACGGGACGAGGACCGGUACGGCCGCCACUCGUGCAGUGAUGUUGCACGAUGGUGACGGAGA [Engebiisso]")
"LOW"
>>> category_label("UGACUGGACUGAAGGAGCGAGCGAGACAAAGUCUCGGAAAUUCAGUGAUGUUGAUAUAUAACUCAGGUAGGUCGCAGUCUAGUCU [ArgBS 6 #SwitchBubble #StaticStem]")
"HIGH"
>>> category_label("GAGAAUAACGGAAGGAGCGAGUAAUGGAGUGAUGUUCCAAUCAAUAAAACACAAUAAAAUACUCAGGUAGGUCGCCGUAGUAGUU [Exclusion Argiie B GF 12]")
"HIGH"

Inquiry: Sort `GCCGUAGAUUGAAGGAGCGAGUAGGCUCACUUGCGAAGUGAAUAGCAGAGUGAUGUUCUGUCUCAGGUAGGUCGCAAUCUACGGC` into one of the categories.
Reply text: HIGH

Inquiry: Sort UAUAUACAUUUAUUAAUUAAAGGUUCAGAAGGAGCGUGAAUUAACACAGGUAGGUCGCUGAGCGAGUGAUGUUCGCUAUAUGGUA [JR_ExcArginiA_Sub005] into one of the categories.
Reply text: LOW
